Recorded IC50 by entry
- studySystem: UniProt:P43235
- Sequence (P43235 115-329, species assumed): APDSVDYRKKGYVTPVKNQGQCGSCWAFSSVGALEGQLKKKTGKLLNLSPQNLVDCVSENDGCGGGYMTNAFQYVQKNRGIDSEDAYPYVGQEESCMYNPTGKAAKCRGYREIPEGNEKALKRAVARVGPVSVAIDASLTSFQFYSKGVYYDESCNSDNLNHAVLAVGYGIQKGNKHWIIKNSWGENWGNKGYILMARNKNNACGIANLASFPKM
- assaySummary: Inhibitory activity assay against cathepsin K (enzyme assay)
- Type: biochemical
- experimentalConditions: Z-Phe-Arg-AMC 10 μM, enzyme 1 nM, pH 5.5, 30 minutes

Consider the following illustrative entries.
{"compound": "N#Cc1nccc(C2(NC(=O)OCc3cccc(F)c3)CCCCC2)n1 [Example 15]", "IC50": "45.5 nM"}
{"compound": "N#Cc1nccc(C2(NC(=O)OCc3ccc(-c4ccc(N5CCOCC5)cc4)cc3)CCCC2)n1 [Example 31]", "IC50": "934 nM"}
{"compound": "CC(C)(C)N1CCN(c2ccc(NC(=O)NC3(c4ccnc(C#N)n4)CCCCC3)cc2)CC1 [Example 143]", "IC50": "2.3 nM"}
{"compound": "N#Cc1nccc(C2(NC(=O)Nc3ccc(-c4ccc(C(=O)O)cc4)c(C(F)(F)F)c3)CCCCC2)n1 [Example 163]", "IC50": "25.2 nM"}
{"compound": "N#Cc1nccc(C2(NC(=O)Nc3cc(C(F)(F)F)ccc3C(=O)O)CCCCC2)n1 [Example 98]", "IC50": "61.7 nM"}
{"compound": "N#Cc1nccc(C2(NC(=O)NCc3ccc4c(c3)OCO4)CCCC2)n1 [Example 43]", "IC50": "462 nM"}
{"compound": "N#Cc1nccc(C2(NC(=O)Nc3ccc(-c4ccc(S(N)(=O)=O)cc4)cc3)CCCCC2)n1 [Example 173]", "IC50": "13.8 nM"}

Looking for the measured IC50 of Cc1ccc(C)c(NC(=O)NC2(c3ccnc(C#N)n3)CCCCC2)c1 [Example 87] , can you help?
3.6 nM

Each recorded value in this set is attributed to patent US11299478B2.
